Values from patent US20220177453A1

# Tested On: XIAP BIR3 (Homo sapiens)
# Construct: isolated BIR3 domain of XIAP (amino acids 255-356; XIAP BIR3); His; GST
# Sequence (P98170 255-356): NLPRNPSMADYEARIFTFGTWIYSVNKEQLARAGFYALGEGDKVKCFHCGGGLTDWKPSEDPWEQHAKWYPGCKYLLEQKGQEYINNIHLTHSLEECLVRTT
# Procedure Summary: XIAP BIR3 fluorescence polarization binding assay
# Recorded Conditions: 5 nM probe, 30 nM XIAP BIR3
Readout Label: pIC50
One number for each entry, as −log10 of the molar value.

Exercise: Fill in: pIC50 of CN[C@@H](C)C(=O)N[C@H](C(=O)N1CCC[C@H]1Cn1cc(C(C)=O)c2cc(Cl)ccc21)C1CCCCC1 is ___
Key: 7.52
